As an illustration, consider measured pIC50 for compounds on Tyrosine-protein phosphatase non-receptor type 7 (Homo sapiens, UniProt P35236).
Sequence (P35236 whole entry): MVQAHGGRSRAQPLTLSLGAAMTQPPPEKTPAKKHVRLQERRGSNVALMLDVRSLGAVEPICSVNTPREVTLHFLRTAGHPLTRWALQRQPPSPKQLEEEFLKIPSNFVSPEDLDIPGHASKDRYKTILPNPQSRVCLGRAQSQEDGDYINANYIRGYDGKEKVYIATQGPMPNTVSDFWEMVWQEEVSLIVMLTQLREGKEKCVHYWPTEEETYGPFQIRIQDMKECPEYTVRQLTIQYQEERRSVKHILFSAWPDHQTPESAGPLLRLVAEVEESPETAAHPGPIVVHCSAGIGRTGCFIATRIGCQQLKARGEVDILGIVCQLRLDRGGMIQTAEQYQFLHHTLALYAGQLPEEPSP
Conceptually, pIC50 converts a concentration in mol/L into minus its log10.

Noted for CCCCCCc1ccc(Oc2ccc(NC(=O)c3cc(COc4ccc(C(=O)C(=O)O)cc4)ccc3COc3ccc(C(=O)C(=O)O)cc3)cc2)cc1 : its pIC50 reads 4.55

Sure, the documented pIC50 for O=C(O)C(=O)c1ccc(OCc2ccc(COc3ccc(C(=O)C(=O)O)cc3)c(C(=O)Nc3ccc(Oc4ccc(-c5ccccc5)cc4)cc3)c2)cc1 is 4.68

Lookup result for CCc1ccc(Oc2ccc(NC(=O)c3cc(COc4ccc(C(=O)C(=O)O)cc4)ccc3COc3ccc(C(=O)C(=O)O)cc3)cc2)cc1 ; measured pIC50: 4.28

Value of measured pIC50 for the entry O=C(O)C(=O)c1ccc(OCc2ccc(COc3ccc(C(=O)C(=O)O)cc3)c(C(=O)Nc3ccc(Oc4ccc(SC(F)(F)F)cc4)cc3)c2)cc1 : 4.28

====

assayedSystem: Secreted effector protein (Yersinia pestis)
Sequence (O68720 whole entry): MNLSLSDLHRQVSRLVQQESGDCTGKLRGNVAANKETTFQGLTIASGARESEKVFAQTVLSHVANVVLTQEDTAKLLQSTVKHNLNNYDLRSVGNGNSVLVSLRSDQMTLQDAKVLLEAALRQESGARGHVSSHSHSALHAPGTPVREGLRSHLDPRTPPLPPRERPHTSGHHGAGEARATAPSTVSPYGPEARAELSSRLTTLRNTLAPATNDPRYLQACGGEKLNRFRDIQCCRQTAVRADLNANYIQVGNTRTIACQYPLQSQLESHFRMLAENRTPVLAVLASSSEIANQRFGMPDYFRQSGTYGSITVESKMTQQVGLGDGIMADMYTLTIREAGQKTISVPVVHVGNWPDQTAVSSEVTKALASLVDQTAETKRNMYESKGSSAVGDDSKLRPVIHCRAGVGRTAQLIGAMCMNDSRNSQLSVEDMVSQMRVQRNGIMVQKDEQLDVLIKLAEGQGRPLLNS
measurementProtocol: Inhibition of Yersinia pestis YOpH
What pIC50 was measured for each of the following?
Keep in mind that pIC50 stands for -log10 of concentration in molar terms.

O=C(O)C(=O)c1ccc(OCc2ccc(COc3ccc(C(=O)C(=O)O)cc3)c(C(=O)Nc3ccc(Oc4ccc(SC(F)(F)F)cc4)cc3)c2)cc1 yielded pIC50 of 7.30

For O=C(O)C(=O)c1ccc(OCc2ccc(COc3ccc(C(=O)C(=O)O)cc3)c(C(=O)Nc3ccc(Oc4ccc(F)cc4)cc3)c2)cc1 the molecule record lists pIC50 as 6.96

So for O=C(O)C(=O)c1ccc(OCc2ccc(COc3ccc(C(=O)C(=O)O)cc3)c(C(=O)Nc3ccc(Oc4ccccc4)cc3)c2)cc1 , the logged pIC50 turned out to be 6.62

The value of pIC50 measured for the molecule CC(C)c1ccc(Oc2ccc(NC(=O)c3cc(COc4ccc(C(=O)C(=O)O)cc4)ccc3COc3ccc(C(=O)C(=O)O)cc3)cc2)cc1 turned out to be 6.10

// pIC50 value for CCCCCCc1ccc(Oc2ccc(NC(=O)c3cc(COc4ccc(C(=O)C(=O)O)cc4)ccc3COc3ccc(C(=O)C(=O)O)cc3)cc2)cc1 : 7.05

// sample O=C(O)C(=O)c1ccc(OCc2ccc(COc3ccc(C(=O)C(=O)O)cc3)c(C(=O)Nc3ccc(Oc4ccc(F)cc4F)cc3)c2)cc1 , its pIC50 was 6.04

====

Observed IC50 for Tyrosine-protein phosphatase non-receptor type 2 (Homo sapiens), reported per entry below.
Your answer should be a plain number; it is taken to be in µM.

Lab note: measured IC50 of CCc1ccc(Oc2ccc(NC(=O)c3cc(COc4ccc(C(=O)C(=O)O)cc4)ccc3COc3ccc(C(=O)C(=O)O)cc3)cc2)cc1 was 3.5

Measured IC50, O=C(O)C(=O)c1ccc(OCc2ccc(COc3ccc(C(=O)C(=O)O)cc3)c(C(=O)Nc3ccc(Oc4ccc(-c5ccccc5)cc4)cc3)c2)cc1 : 6.5

# IC50 (compound: O=C(O)C(=O)c1ccc(OCc2ccc(COc3ccc(C(=O)C(=O)O)cc3)c(C(=O)Nc3ccc(Oc4ccc(SC(F)(F)F)cc4)cc3)c2)cc1 ) is 4

Measured IC50 of CCCCCCc1ccc(Oc2ccc(NC(=O)c3cc(COc4ccc(C(=O)C(=O)O)cc4)ccc3COc3ccc(C(=O)C(=O)O)cc3)cc2)cc1 : 2.3
